Entry source: ChEMBL document CHEMBL1201862

- Tested on: SR
- Method: NCI tumour cell line growth inhibition, 48 h
Calls of active or inactive are those of the source. Cut-off read from the data, not from the text of the source: active = GI50 up to about 1.1 µM and inactive = higher.
Your answer must be one of the following: 1 (yes) = active, 0 (no) = inactive

Record excerpt, results attached:
Compound	Discrete label
[O-][n+]1onc2c3nn(-c4ccccc4)nc3ccc21	0 (no)
COC(=O)Nc1nc2cc(Oc3ccc4nc(NC(=O)OC)[nH]c4c3)ccc2[nH]1	1 (yes)
O=c1c(SSc2coc3cc(F)ccc3c2=O)coc2cc(F)ccc12	0 (no)

# input Hi team, can someone confirm the assay call for `O=C(Nc1ccc(Br)cc1)c1c(-c2ccccc2)c2ccc(O)cc2oc1=O` ?
# output 0 (no)

# input Recorded call for `O=C1c2ccccc2-c2c1c1ccccc1c(=O)n2Cc1ccco1` ?
# output 0 (no)
